- Study System: HIV-1 Env of pseudovirus SC422661.8 (HIV-1)
- Protocol Text: cell-based or functional assay
Property Measured: neutralization IC80

// query Please give the measured neutralization IC80 for this binder: MS-79 (antibody, V domains shown) VH: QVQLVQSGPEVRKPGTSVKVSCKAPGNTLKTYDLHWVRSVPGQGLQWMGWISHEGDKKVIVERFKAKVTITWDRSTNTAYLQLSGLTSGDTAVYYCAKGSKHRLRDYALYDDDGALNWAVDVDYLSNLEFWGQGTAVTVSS VL: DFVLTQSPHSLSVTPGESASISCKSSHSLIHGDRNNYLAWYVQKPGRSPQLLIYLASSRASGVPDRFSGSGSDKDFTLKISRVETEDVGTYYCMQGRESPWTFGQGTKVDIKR
// result > 25 µg/mL

Ref: patent US20220025021A1
